Entry source: patent US8835476B2

# Tested on: Ps. aeruginosa ATCC 27853
# measurement_notes: Broth microdilution MIC, ATCC strains
# Format: cell-based
# condition_set: Pseudomonas aeruginosa, ATCC27853; Ps. aeruginosa ATCC 27853; read-out: MIC (growth inhibition, microdilution method)
Reported MIC values are given for each entry in this list.
API: value field is a number in µg/mL; no unit string.

>  <compound>
Cn1nnc(-c2cc(C(=O)O)sc2-c2ccc(F)cc2)n1 [DNM-123]

>  <unit_tag>
µg/mL

>  <MIC>
8

$$$$
>  <compound>
O=C(O)c1cc(-c2nn[nH]n2)cs1 [DNM-116]

>  <unit_tag>
µg/mL

>  <MIC>
16

$$$$

Enquiry: Entry COC(=O)c1cc(-c2nnnn2C)c(C(=O)OC)s1 [DNM-115] : reported MIC = ?
Return: 8

Enquiry: Entry COC(=O)c1cc(-c2nnn(C)n2)c(C(=O)OC)s1 [DNM-114] : reported MIC = ?
Return: 64

Enquiry: Entry O=C(O)c1cc(-c2nnn[nH]2)c(C(=O)O)s1 [DNM-111] : reported MIC = ?
Return: 64

Enquiry: Entry Cn1nnnc1-c1cc(C(=O)O)sc1C(=O)O [DNM-113] : reported MIC = ?
Return: 8

Enquiry: Entry O=C(O)c1cc(-c2nnn[nH]2)c(-c2ccc(F)cc2)s1 [DNM-121] : reported MIC = ?
Return: 64
